Biological target: 7-dehydrocholesterol reductase (Homo sapiens)
Assay: Inhibition of 7-dehydrocholesterol reductase in human HL60 cells assessed as accumulation of 7-dehydrocholesterol at 1 uM after 24 hrs by GC/MS analysis
Assay type: cell-based
Settings: HL-60
Calls of active or inactive are those of the source. The calls are words filed in the database; no cut-off is given here.
Outcome field: choose from True = active, False = inactive

Record request — test call for COc1cc2c(cc1O)CCN(CCc1ccc(F)cc1)C2
True

Also COc1ccc(CCN2CCc3cc(O)c(OC)cc3C2)cc1 , if possible.
True

Also COc1cc2c(cc1O)CCN(CCc1ccccc1OC)C2 , if possible.
False

Also COc1cc2c(cc1O)CCN(CCc1ccc(Cl)cc1)C2 , if possible.
True

Also COc1ccc(CCN2CCc3cc(OC)c(OC)cc3C2)cc1 , if possible.
False

Also COc1cc2c(cc1O)CCN(CCc1ccc(OC)c(OC)c1)C2 , if possible.
True

Also Oc1ccc(CCN2CCc3cc(O)ccc3C2)cc1 , if possible.
False

Also COc1ccc(CCN2CCc3cc(OC)ccc3C2)cc1 , if possible.
False

Also COc1ccc(CCN2CCc3cc4c(cc3C2)OCO4)cc1 , if possible.
False

Also COc1cccc(CCN2CCc3cc(O)c(OC)cc3C2)c1 , if possible.
True

Also COc1ccc(CCN2CCc3cc(OC)c(O)cc3C2)cc1 , if possible.
False

Also COc1ccc2c(c1)CCN(CCc1ccccc1)C2 , if possible.
False

---

Assay: Antifungal activity against Aspergillus brasiliensis DSM 1988 after 36 hrs by disc diffusion method
ENDPOINT_NAME: Activity

> print(dat)
                            chem.smiles  reported.measurement
1        COc1ccc2c(c1)CCN(CCc1ccccc1)C2             Non-toxic
2        Oc1ccc(CCN2CCc3cc(O)ccc3C2)cc1             Non-toxic
3      COc1ccc(CCN2CCc3cc(OC)ccc3C2)cc1             Non-toxic
4  COc1ccc(CCN2CCc3cc(OC)c(OC)cc3C2)cc1             Non-toxic
5   COc1cc2c(cc1O)CCN(CCc1ccc(Cl)cc1)C2             Non-toxic

// Activity lookup, key: COc1cc2c(cc1O)CCN(CCc1ccc(F)cc1)C2
Non-toxic

Also COc1cccc(CCN2CCc3cc(O)c(OC)cc3C2)c1 , if possible.
Non-toxic

Also COc1cc2c(cc1O)CCN(CCc1ccccc1OC)C2 , if possible.
Non-toxic

Also COc1ccc(CCN2CCc3cc(OC)c(O)cc3C2)cc1 , if possible.
Non-toxic

Also COc1cc2c(cc1O)CCN(CCc1ccc(OC)c(OC)c1)C2 , if possible.
Non-toxic

Also COc1ccc(CCN2CCc3cc(O)c(OC)cc3C2)cc1 , if possible.
Non-toxic

Also COc1ccc(CCN2CCc3cc4c(cc3C2)OCO4)cc1 , if possible.
Non-toxic

---

Assay: Antifungal activity against Hyphopichia burtonii DSM 70663 after 36 hrs by disc diffusion method
ENDPOINT_NAME: Activity

Use the examples below as a reference point.
> print(dat)
                               chem.smiles  reported.measurement
1      COc1cc2c(cc1O)CCN(CCc1ccc(Cl)cc1)C2             Non-toxic
2           COc1ccc2c(c1)CCN(CCc1ccccc1)C2             Non-toxic
3  COc1cc2c(cc1O)CCN(CCc1ccc(OC)c(OC)c1)C2                 Toxic
4     COc1ccc(CCN2CCc3cc(OC)c(OC)cc3C2)cc1             Non-toxic
5      COc1ccc(CCN2CCc3cc(O)c(OC)cc3C2)cc1                 Toxic

// Activity lookup, key: COc1ccc(CCN2CCc3cc4c(cc3C2)OCO4)cc1
Non-toxic

---

Target: 7-dehydrocholesterol reductase (Homo sapiens) (UniProt Q9UBM7)
Sequence (Q9UBM7 whole entry): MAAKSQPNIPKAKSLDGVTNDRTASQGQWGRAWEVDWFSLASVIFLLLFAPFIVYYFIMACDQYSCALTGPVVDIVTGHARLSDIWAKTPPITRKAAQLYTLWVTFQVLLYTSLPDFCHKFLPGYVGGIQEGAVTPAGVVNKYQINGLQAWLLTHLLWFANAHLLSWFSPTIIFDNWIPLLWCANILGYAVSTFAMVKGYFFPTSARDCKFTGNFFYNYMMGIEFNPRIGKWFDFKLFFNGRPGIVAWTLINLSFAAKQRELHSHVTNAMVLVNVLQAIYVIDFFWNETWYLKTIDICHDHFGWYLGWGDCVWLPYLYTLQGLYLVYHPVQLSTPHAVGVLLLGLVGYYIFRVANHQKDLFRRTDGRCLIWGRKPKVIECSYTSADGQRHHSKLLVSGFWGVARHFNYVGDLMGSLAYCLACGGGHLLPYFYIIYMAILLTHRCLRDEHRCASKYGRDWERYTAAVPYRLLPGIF
Assay: Inhibition of 7-dehydrocholesterol reductase in human HL60 cells assessed as accumulation of 7-dehydrocholesterol at 50 uM after 24 hrs by GC/MS analysis
Assay type: cell-based
Details: HL-60
Calls of active or inactive are those of the source. The calls are words filed in the database; no cut-off is given here.
Outcome field: choose from active, inactive

Record request — test call for COc1ccc(CCN2CCc3cc(OC)c(O)cc3C2)cc1
inactive

Also COc1ccc(CCN2CCc3cc(O)c(OC)cc3C2)cc1 , if possible.
active

Also Oc1ccc(CCN2CCc3cc(O)ccc3C2)cc1 , if possible.
active

Also COc1ccc(CCN2CCc3cc(OC)ccc3C2)cc1 , if possible.
inactive

Also COc1ccc2c(c1)CCN(CCc1ccccc1)C2 , if possible.
inactive

Also COc1cc2c(cc1O)CCN(CCc1ccc(F)cc1)C2 , if possible.
active

Also COc1ccc(CCN2CCc3cc(OC)c(OC)cc3C2)cc1 , if possible.
inactive

Also COc1cc2c(cc1O)CCN(CCc1ccccc1OC)C2 , if possible.
active

Also COc1ccc(CCN2CCc3cc4c(cc3C2)OCO4)cc1 , if possible.
inactive

---

Biological target: 3-beta-hydroxysteroid-Delta(8),Delta(7)-isomerase (Homo sapiens) (UniProt Q15125)
Sequence (Q15125 whole entry): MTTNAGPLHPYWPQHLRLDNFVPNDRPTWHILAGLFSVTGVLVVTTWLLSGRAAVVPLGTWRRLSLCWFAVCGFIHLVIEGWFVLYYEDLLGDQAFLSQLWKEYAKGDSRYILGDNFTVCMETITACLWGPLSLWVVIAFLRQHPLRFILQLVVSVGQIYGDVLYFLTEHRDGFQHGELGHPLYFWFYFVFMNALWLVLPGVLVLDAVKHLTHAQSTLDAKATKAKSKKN
Test: Inhibition of delta8,7-isomerase in human HL60 cells assessed as accumulation of zymostenol at 1 uM after 24 hrs by GC/MS analysis
Assay type: cell-based
Conditions: HL-60
The source made the active and inactive calls. The calls are words filed in the database; no cut-off is given here.
Outcome field: choose from active, inactive

Record request — test call for COc1ccc(CCN2CCc3cc4c(cc3C2)OCO4)cc1
active

Also COc1ccc(CCN2CCc3cc(OC)ccc3C2)cc1 , if possible.
active

Also COc1ccc(CCN2CCc3cc(OC)c(O)cc3C2)cc1 , if possible.
inactive

Also COc1ccc2c(c1)CCN(CCc1ccccc1)C2 , if possible.
active

Also COc1ccc(CCN2CCc3cc(OC)c(OC)cc3C2)cc1 , if possible.
active

---

Target: 3-beta-hydroxysteroid-Delta(8),Delta(7)-isomerase (Homo sapiens) (UniProt Q15125)
Assay: Inhibition of delta8,7-isomerase in human HL60 cells assessed as accumulation of zymostenol at 50 uM after 24 hrs by GC/MS analysis
Assay type: cell-based
Settings: HL-60
Activity calls are given as the source filed them. No cut-off for these calls is given here.
Outcome field: choose from y = active, n = inactive

Record request — test call for COc1cc2c(cc1O)CCN(CCc1ccc(F)cc1)C2
y

Also COc1ccc(CCN2CCc3cc(OC)c(O)cc3C2)cc1 , if possible.
n

Also COc1ccc2c(c1)CCN(CCc1ccccc1)C2 , if possible.
y

Also COc1ccc(CCN2CCc3cc(OC)ccc3C2)cc1 , if possible.
y

Also COc1ccc(CCN2CCc3cc4c(cc3C2)OCO4)cc1 , if possible.
y

Also COc1ccc(CCN2CCc3cc(O)c(OC)cc3C2)cc1 , if possible.
y

Also COc1ccc(CCN2CCc3cc(OC)c(OC)cc3C2)cc1 , if possible.
y

---

Test system: Nakaseomyces glabratus
Test: Antifungal activity against Candida glabrata DSM 11226 after 36 hrs by disc diffusion method
Format: organism-based
Details: in vivo
ENDPOINT_NAME: Activity

Use the examples below as a reference point.
> print(dat)
                           chem.smiles  reported.measurement
1  COc1ccc(CCN2CCc3cc4c(cc3C2)OCO4)cc1             Non-toxic
2    COc1cc2c(cc1O)CCN(CCc1ccccc1OC)C2             Non-toxic
3  COc1cccc(CCN2CCc3cc(O)c(OC)cc3C2)c1             Non-toxic
4  COc1ccc(CCN2CCc3cc(OC)c(O)cc3C2)cc1             Non-toxic
5  COc1cc2c(cc1O)CCN(CCc1ccc(Cl)cc1)C2             Non-toxic

API: the following record is the query input.
What is its Activity for Nakaseomyces glabratus? Entry: COc1ccc2c(c1)CCN(CCc1ccccc1)C2
Non-toxic

---

Test system: Saccharomyces cerevisiae
Assay: Antifungal activity against Saccharomyces cerevisiae DSM 1333 after 36 hrs by disc diffusion method
Assay type: organism-based
Conditions: in vivo
ENDPOINT_NAME: Activity

> print(dat)
                           chem.smiles  endpoint.name  reported.measurement
1   COc1cc2c(cc1O)CCN(CCc1ccc(F)cc1)C2       Activity             Non-toxic
2       COc1ccc2c(c1)CCN(CCc1ccccc1)C2       Activity             Non-toxic
3  COc1cc2c(cc1O)CCN(CCc1ccc(Cl)cc1)C2       Activity             Non-toxic
4  COc1ccc(CCN2CCc3cc4c(cc3C2)OCO4)cc1       Activity             Non-toxic

// Activity lookup, key: COc1cc2c(cc1O)CCN(CCc1ccc(OC)c(OC)c1)C2
Non-toxic

Also COc1ccc(CCN2CCc3cc(OC)c(OC)cc3C2)cc1 , if possible.
Non-toxic

Also COc1cc2c(cc1O)CCN(CCc1ccccc1OC)C2 , if possible.
Non-toxic

Also COc1ccc(CCN2CCc3cc(OC)ccc3C2)cc1 , if possible.
Non-toxic

Also Oc1ccc(CCN2CCc3cc(O)ccc3C2)cc1 , if possible.
Non-toxic

Also COc1cccc(CCN2CCc3cc(O)c(OC)cc3C2)c1 , if possible.
Non-toxic

Also COc1ccc(CCN2CCc3cc(OC)c(O)cc3C2)cc1 , if possible.
Non-toxic

Also COc1ccc(CCN2CCc3cc(O)c(OC)cc3C2)cc1 , if possible.
Non-toxic

Data credit: ChEMBL document CHEMBL2169759
